target.system: human LAG3 expressed on cells (human) (UniProt P18627)
Sequence (P18627 23-525): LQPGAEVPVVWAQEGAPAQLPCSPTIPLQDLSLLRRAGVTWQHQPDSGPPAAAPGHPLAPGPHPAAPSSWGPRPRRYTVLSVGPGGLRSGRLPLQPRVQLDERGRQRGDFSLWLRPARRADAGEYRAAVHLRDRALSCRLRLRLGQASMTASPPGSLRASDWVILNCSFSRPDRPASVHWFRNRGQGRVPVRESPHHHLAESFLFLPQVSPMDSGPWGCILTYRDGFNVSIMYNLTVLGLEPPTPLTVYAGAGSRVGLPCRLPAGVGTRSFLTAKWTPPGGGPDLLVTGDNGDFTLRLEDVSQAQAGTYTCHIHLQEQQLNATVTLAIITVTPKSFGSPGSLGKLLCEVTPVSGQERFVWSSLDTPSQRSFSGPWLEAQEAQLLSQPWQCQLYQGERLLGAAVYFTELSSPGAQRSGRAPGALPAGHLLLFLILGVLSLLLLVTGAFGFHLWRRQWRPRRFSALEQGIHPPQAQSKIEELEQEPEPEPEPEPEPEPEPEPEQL
procedure.details: cell-based or functional assay
measured.attribute: IL-2, % of BMS, at 0.24691358 ug/mL (%)
Respond with the bare value in %.

Entry sdAb fusion 25-17-3 (Fc fusion, not shown: a dimerising Fc or GST) QLQLVESGGGLVQAGGSLRLSCAASGSIESFSFMGWYRQAPGKQRELVAGFTGAASLSFSTYTDAVKGRFTISRDNAKNTVYLQMNSLKPEDTAVYFCNVDPWSQSWPGRYWGQGTQVTVSSGGGGSGGGGSGGGGSQLQLVESGGGLVQPGGSLRLSCAASGLTLDGYAIGWFRQAPGKEREGLACISGSDGSTHYLDSVKGRFTISRDNGKNTMALQMNSLQFGDTAIYYCAARRGSCSGSWTYWGQGTQVTVSSEPKSCDKTHTCPPCPAPELLG has what IL-2, % of BMS, at 0.24691358 ug/mL?
12.1
